- target-or-test-system: KDR kinase (Homo sapiens, UniProt P35968, DEL940-989/E990V)
- Sequence (P35968 with tags, fused parts or gaps DEL940-989/E990V): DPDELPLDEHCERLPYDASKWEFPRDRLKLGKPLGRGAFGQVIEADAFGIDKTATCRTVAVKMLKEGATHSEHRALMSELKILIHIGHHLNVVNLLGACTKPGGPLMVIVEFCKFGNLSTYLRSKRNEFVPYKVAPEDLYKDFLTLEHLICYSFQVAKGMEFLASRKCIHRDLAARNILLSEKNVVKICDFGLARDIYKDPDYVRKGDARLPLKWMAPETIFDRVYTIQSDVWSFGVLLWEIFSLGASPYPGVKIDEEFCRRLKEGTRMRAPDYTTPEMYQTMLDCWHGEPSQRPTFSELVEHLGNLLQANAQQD
- assay-text: KDR kinase assay K2 (as K1, 2.1 nM enzyme, 2 h pre-incubation, 1.0 mM ATP)
- Type: biochemical
- applied-conditions: Method K2; read-out: KDR Data (IC50)
readout: pIC50
Give bare numbers, as −log10 of the molar value.

These solved cases illustrate the format of a correct answer.
CC(C)(C)c1cc(NC(=O)Nc2cccc(Oc3cccnc3)c2)n(-c2cc(CN)c3ccccc3c2)n1	8.07
CCOC(=O)C1CCCN(C(=O)Cc2cccc(-n3nc(C(C)(C)C)cc3NC(=O)Nc3cccc(Cl)c3Cl)c2)C1 (stereo not shown)	5.47
NC(=O)Cc1cccc(-c2ccc(C(F)(F)F)cc2NC(=O)Nc2ccc(-c3cccc4c3CNC4=O)cc2)c1	7.85
CC(C)(C)c1cc(NC(=O)Nc2cccc(Oc3cccnc3)c2)n(-c2ccc3c(c2)CCNC3)n1	8.07

List the reported pIC50 of each compound below.
1. CNC(=O)C1NCCc2cc(-n3nc(C(C)(C)C)cc3NC(=O)Nc3cccc(Oc4cccnc4)c3)ccc21 (stereo not shown)
2. COc1cccc(-n2nc(C(C)(C)C)cc2NC(=O)Nc2ccc(Cl)cc2Cl)c1
3. COc1cccc(-n2nc(C(C)(C)C)cc2NC(=O)Nc2ccc([N+](=O)[O-])cc2)c1

8.11
6.39
5.30

Source: patent US8163756B2
